- System: CHEK1;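 note: KINOMEscan kinase panel screen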
- measurement conditions: concentration: 1 μM, replicates: in singlicate; n = 1
property name: %Inh (%)
Kindly answer with a numeric value in %, unit omitted.

(Q) Which value of %Inh has been reported for "Cl.c1ccc(Cn2cnc3cc(Nc4ncnc5ccccc45)ccc32)cc1" in the records?
(A) 0

(Q) Which value of %Inh has been reported for "COc1cccc(-n2cnc3c(N)ncnc32)c1" in the records?
(A) 0

(Q) Which value of %Inh has been reported for "O=C(Nc1n[nH]c2nc(-c3ccccc3)c(Cl)cc12)C1CC1" in the records?
(A) 0

(Q) Which value of %Inh has been reported for "O=C(NCCNc1ccnc(Nc2ccc(F)cc2)n1)Nc1ccc2c(c1)OCO2" in the records?
(A) 0

(Q) Which value of %Inh has been reported for "COc1cc2nccc(Nc3ccc(OCc4ccc(NC(C)=O)cc4)cc3)c2cc1OC.Cl" in the records?
(A) 0

(Q) Which value of %Inh has been reported for "Nc1ncnc2c1ncn2-c1ccc(Cl)cc1" in the records?
(A) 0

(Q) Which value of %Inh has been reported for "CCC(=O)c1c(-c2ccccc2)c2cc(Cl)ccc2c(=O)n1Cc1cc(S(C)(=O)=O)n(CCC(C)(C)O)n1" in the records?
(A) 13

(Q) Which value of %Inh has been reported for "COc1ccc(-n2cnc3c(N)ncnc32)cc1" in the records?
(A) 2

(Q) Which value of %Inh has been reported for COc1ccc(CNC(=O)NC2CCN(c3ccnc(Nc4ccc(F)cc4)n3)C2)cc1 (stereo not shown) in the records?
(A) 8

(Q) Which value of %Inh has been reported for "Nc1n[nH]c2ncc(-c3ccccc3)cc12" in the records?
(A) 12
